Experiment notes: probe aInhba binding on compound microarray – biochemical, small-molecule microarray, 635/667 nm fluorescence, primary screen (AID 1148);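 note: score merges 667nm spot fluorescence with signal-to-noise for antibody binding to printed compounds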
Measurement context: higher = more signal
Quick reference for composite z-score among some molecules
The answer should be written as a number, with no unit following it.

molecule="CCCCC(O)C1C=CC2C(=O)N(Cc3ccccc3)C(=O)C2N1n1cnnc1 (stereo not drawn)" value_measured=-0.0477
molecule=[N-]=[N+]=NCc1ccccc1C[C@@]1(C(=O)NCCN2CCOCC2)N=C(c2ccc(OCCCO)cc2)O[C@@H]1c1ccccc1CN=[N+]=[N-] value_measured=0.196
molecule=COC(=O)[C@@]1(Cc2ccccc2N=[N+]=[N-])N=C(c2ccc(OCCCO)cc2)O[C@H]1c1ccccc1 value_measured=-0.0403
molecule=COC(=O)C(CC#Cc1ccc2c(c1)[C@]1(C(=O)N2)[C@H](c2ccccc2OCCO)N2[C@H](c3ccccc3)[C@H](c3ccccc3)OC(=O)[C@H]2[C@@H]1C(=O)Nc1nc2ccccc2s1)C(=O)OC value_measured=0.0633
molecule=COCCCNC(=O)[C@@]1(Cc2ccccc2CN=[N+]=[N-])N=C(c2ccc(OCCCO)cc2)O[C@H]1c1ccccc1N=[N+]=[N-] value_measured=0.786
molecule=CCOC(=O)C[C@H]1[C@H](OC(=O)c2ccccc2-c2ccccc2)[C@@H](NC(=O)c2ccccc2)c2cc(OCCCO)ccc2N1C(=O)Cc1ccc(OC)cc1 value_measured=-0.154

**Q:** // query composite z-score value for entry O=C1C2C=CC(C(O)c3cccc4ccccc34)N(Nc3ccccc3)C2C(=O)N1c1ccccc1 (stereo not drawn)
**A:** 0.0705

**Q:** // query composite z-score value for entry `COCCOC(=O)N1C(=O)[C@@]2(c3ccccc31)[C@H](c1ccccc1OCCO)N1[C@H](c3ccccc3)[C@H](c3ccccc3)OC(=O)[C@H]1[C@@H]2C(=O)N1CCc2cc(OC)c(OC)cc2C1`
**A:** 0.255

**Q:** // query composite z-score value for entry `Cc1ccc(S[C@]2(C(=O)O)CC(=O)N(Cc3ccccc3C(F)(F)F)[C@@H]2c2ccc(CO)cc2)cc1`
**A:** -0.113

**Q:** // query composite z-score value for entry `COCCCNC(=O)[C@@]1(Cc2ccccc2I)c2ccccc2C(=O)N(Cc2ccccc2Cl)[C@H]1c1ccc(CO)cc1`
**A:** -0.0538

**Q:** // query composite z-score value for entry `C#CCNS(=O)(=O)N(C)C`
**A:** -0.222

**Q:** // query composite z-score value for entry CC(C)c1ccc(NN2C(C(O)c3cccs3)C=CC3C(=O)N(c4ccccc4)C(=O)C32)cc1 (stereo not drawn)
**A:** 0.152

**Q:** // query composite z-score value for entry `CN(C)C(=O)[C@]1(Cc2ccccc2N=[N+]=[N-])N=C(c2ccc(OCCCO)cc2)O[C@@H]1c1ccccc1CN=[N+]=[N-]`
**A:** 0.282
